Biological target: His-tagged canine IL-31 (interleukin 31) recombinant protein (canine)
Assay: BLI (Gator), biotinylated antibody on streptavidin probe, canine IL-31 as analyte
Could you please report measured koff for the items listed next?
One number for each entry, in s⁻¹.

{"BINDER": "7475-H2K1-canIgGB (antibody, V domains shown) VH: EVQLVESGGDLVKPGGSLRLSCVASGFTFSSYAMSWIRQAPGKGLQWVAYISNGGDYIFYADTVKGRFTISRDNAKNTLYLQMNSLRAEDTAVYYCTRRGHYNTSSYWYFDVWGQGTLVTVSS VL: EIVMTQSPASLSLSQEEKVTITCKASENVGTYVSWYQQKPGQAPKLLIYGASNRYTGVPSRFSGSGSGTDFTFTISSLEPEDVAVYYCGQSYSYPPTFGAGTKVELKR", "koff / s⁻¹": 0.00055}
{"BINDER": "B2-H1K2-canIgGB (antibody, V domains shown) VH: EVQLVESGGDLVKPGGSLRLSCVASGFTFSDAWMDWVRQAPGKGLQWLAEIRSRAESHATYYAESVKGRFTISRDDAKNTVYLQMNSLRAEDTAVYYCTPASTMITTGWFAYWGQGTLVTVSS VL: DIVMTQTPLSLSVSPGETASISCRASQNISVYLHWYRQKPGQSPQVLIKYVSQSISGVPDRFSGSGSGSDFTLRISRVEADDTGVYYCQNGHSFPYTFGQGTKLEIKR", "koff / s⁻¹": 0.00115}
{"BINDER": "B2-H3K3-canIgGB (antibody, V domains shown) VH: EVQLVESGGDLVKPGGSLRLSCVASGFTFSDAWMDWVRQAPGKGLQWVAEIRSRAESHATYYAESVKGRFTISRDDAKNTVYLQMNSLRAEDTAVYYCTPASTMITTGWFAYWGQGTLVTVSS VL: EIVMTQTPLSLSVSPGELATISCRASQNISVYLHWYQQKPGQAPKVLIKYVSQSISGVPSRFSGSGSGSDFTLTISSVEAEDVGVYYCQNGHSFPYTFGQGTKLEIKR", "koff / s⁻¹": 0.000381}
{"BINDER": "B2-H1K1-canIgGB (antibody, V domains shown) VH: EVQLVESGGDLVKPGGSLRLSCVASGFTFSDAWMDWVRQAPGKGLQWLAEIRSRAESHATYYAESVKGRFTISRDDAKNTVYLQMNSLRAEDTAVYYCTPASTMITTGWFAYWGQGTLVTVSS VL: EIVMTQTPLSLAVTPGELATISCRASQNISVYLHWYLQKPGQTPRVLIKYVSQSISGVSDRFSGSGSGSDFTLKISRVEAEDVGVYYCQNGHSFPYTFGQGTKLEIKR", "koff / s⁻¹": 0.0013}

Now consider the entry below.
# binder B2-H2K1-canIgGB (antibody, V domains shown) VH: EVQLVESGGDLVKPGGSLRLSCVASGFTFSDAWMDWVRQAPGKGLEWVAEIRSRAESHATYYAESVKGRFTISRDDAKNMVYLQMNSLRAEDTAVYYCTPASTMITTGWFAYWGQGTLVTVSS VL: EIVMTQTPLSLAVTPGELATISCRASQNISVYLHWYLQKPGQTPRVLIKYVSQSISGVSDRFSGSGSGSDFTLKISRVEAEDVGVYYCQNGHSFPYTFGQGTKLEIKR ; its koff = 0.000942
